B1: SETD8 (parent)
chain: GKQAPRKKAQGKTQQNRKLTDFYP

Variants of: B1
TEST: protein stability index of a GFP-peptide fusion (GPS, HEK-293T) (PSI 1-6); higher = more stable;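 note: lentivirally expressed fusions sorted by FACS into six bins by GFP to DsRed ratio, PSI derived from sequencing read proportions per bin multiplied by bin number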
MEASUREMENT_CONDITIONS: c terminus: a fixed tail appended
PROPERTY: protein stability index

>>> numeric_readout("G11P")
3.46
>>> numeric_readout("G1D")
2.68
>>> numeric_readout("K12W")
3.08
>>> numeric_readout("K8I")
3.04
>>> numeric_readout("A4T")
2.71
>>> numeric_readout("K2V")
3.99
>>> numeric_readout("K2L")
4.09
>>> numeric_readout("R17T")
2.61
>>> numeric_readout("P5S")
4.65
>>> numeric_readout("K8Y")
3.22
>>> numeric_readout("L19K")
4
>>> numeric_readout("A4S")
4.29
>>> numeric_readout("L19F")
3.27
>>> numeric_readout("K12R")
2.99
>>> numeric_readout("F22G")
4.75
>>> numeric_readout("K12I")
2.85
>>> numeric_readout("Y23L")
3.96
>>> numeric_readout("A4G")
3.46
>>> numeric_readout("K12G")
3.37
>>> numeric_readout("R6T")
3.21
>>> numeric_readout("K8P")
3.76
>>> numeric_readout("R6H")
3.07
>>> numeric_readout("P5Q")
3.75
>>> numeric_readout("F22S")
4.69
>>> numeric_readout("K2M")
3.05
>>> numeric_readout("Q3H")
3.8
>>> numeric_readout("P24F")
3.48
>>> numeric_readout("K12L")
3.21
>>> numeric_readout("P24C")
3.62
>>> numeric_readout("T20E")
4.22
>>> numeric_readout("Y23K")
5.33
>>> numeric_readout("R6S")
3.46
>>> numeric_readout("A9D")
3.57
>>> numeric_readout("D21K")
3.91
>>> numeric_readout("R17K")
2.59
>>> numeric_readout("G1K")
3.75
>>> numeric_readout("F22H")
4.13
>>> numeric_readout("G11D")
2.94
>>> numeric_readout("Y23D")
4.64
>>> numeric_readout("P24A")
2.66
>>> numeric_readout("A9Q")
2.89
>>> numeric_readout("Q14A")
2.81
>>> numeric_readout("Q14C")
2.37
>>> numeric_readout("T13D")
3.09
